Molecular target: SARS-CoV-2 Main Protease (SARS-CoV-2)
Conditions: 20.0 µM
READOUT: inhibition (%)
Numeric answer only, unit % assumed.

*Q* Please look at this compound and report its inhibition: O=C(c1ccccc1)N1CCN(C(=O)c2nn(-c3ccccc3C(F)(F)F)cc2O)CC1
*A* -48

*Q* Provide inhibition value for the following compound: Cc1ccncc1NC(=O)CC(C)C(C)C (stereo not given)
*A* -5.58

*Q* Give the reported value of inhibition for this record: CCCc1cc2c(cc1S(=O)(=O)N1CCN(c3ccccc3)CC1)OCO2
*A* 8.44

*Q* Dear colleague, please send me the reported inhibition for O=C(Cc1cncnc1)Nc1cc(F)cc(OC2CC(=O)N2)c1 (stereo not given) when you can.
*A* 52.8

*Q* Return value of inhibition for input O=C(NCCN1CCN(C(=O)CCl)CC1)c1ccccc1 , no commentary.
*A* 0.205

*Q* Query inhibition for Cc1cc(C)c(C)c(S(=O)(=O)N2CCN(C(=O)c3cc[nH]c(=O)c3)CC2)c1C
*A* -1.5

*Q* Quote inhibition reported for Cc1cc(C)cc(NC(=O)Cc2cnn(C)c2C)c1 please.
*A* -12.1

*Q* Hello, please tell me recorded inhibition for this one: Cc1nnc(NC(=O)C2COc3ccc(Cl)cc32)n1C1CC1 (stereo not given)
*A* -63.2

*Q* Tell me its inhibition given C=CC(=O)N(c1cc(C)cc(N)c1)C(C(=O)NC(C)(C)C)c1cccnc1 (stereo not given) as the entry.
*A* -15.1

*Q* Give the value of inhibition reported for the following: O=C(CCl)N1CCN(Cc2ccsc2)CC1
*A* 98.8

*Q* Identify measured inhibition corresponding to CCCCN(CCNC(=O)Nc1cn(C)c(=O)c2ccccc12)Cc1ccco1
*A* 6.22

*Q* Given O=C(Nc1cccnc1)c1cc(Cl)ccc1-c1ccccc1 , respond with its inhibition.
*A* 47.4

*Q* Note down inhibition recorded for O=C(NCc1cccnn1)Nc1cccc(N2CCC2=O)c1
*A* 3.61

*Q* Indicate its recorded inhibition; the compound in question is Cc1ncc2c(n1)CCC(NC(=O)NCc1cccc(N3C(=O)NC4(CCCC4)C3=O)c1)C2 (stereo not given)
*A* -7.81

*Q* Answer with the recorded inhibition of O=C(NCc1cccnc1)Nc1cccc(OCC(F)F)n1 only.
*A* 3.33
